# System name: Avi-KRAS G12V (1-169) GppNHp/RAF1 RBD-3xFLAG (52-151) (Homo sapiens, UniProt P01116, G12V)
# Construct: Avi-KRAS G12V (1-169)
# Sequence (P01116 1-169 isoform P01116-2 G12V): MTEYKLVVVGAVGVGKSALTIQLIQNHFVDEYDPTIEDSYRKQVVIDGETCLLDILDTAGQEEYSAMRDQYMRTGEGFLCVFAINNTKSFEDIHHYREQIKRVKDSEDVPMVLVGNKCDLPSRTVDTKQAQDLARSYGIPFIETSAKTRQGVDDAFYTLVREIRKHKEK
# Assay comment: Raf1-KRAS G12V-GppNHP disruption HTRF assay (Biological Example 1)
# Assay type: binding
# Assay setup: KRAS G12V, GppNHp-loaded; class symbols
Reported metric: IC50

Compound	Observed result
C[C@H](c1cccnc1N)N(C)c1nc(OC[C@@]23CCCN2C[C@H](F)C3)nc2c(F)c(-c3ccc(F)c4sc(N)c(C#N)c34)c(C(F)(F)F)cc12 (atropisomer, axis not shown) [Compound 600]	< 100 nM
CCN(c1nc(OC[C@@]23CCCN2C[C@H](F)C3)nc2c(F)c(-c3ccc(F)c4sc(N)c(C#N)c34)c(C(F)(F)F)cc12)[C@H]1C[C@@H](COC)N(C(=O)C2CC2)C1 (atropisomer, axis not shown) [Compound 650]	100 to 1000 nM
CCN(c1nc(OC[C@@]23CCCN2C[C@H](F)C3)nc2c(F)c(-c3ccc(F)c4sc(N)c(C#N)c34)c(C(F)(F)F)cc12)[C@H]1CCN(C(=O)[C@@H](C)CF)C1 (atropisomer, axis not shown) [Compound 710]	100 to 1000 nM
CCN(c1nc(OC[C@@]23CCCN2C[C@H](F)C3)nc2c(F)c(-c3ccc(F)c4sc(N)c(C#N)c34)c(C(F)(F)F)cc12)[C@H]1CCN(C(=O)OCC2COC2)C1 (atropisomer, axis not shown) [Compound 639]	< 100 nM
